- tested_system: human recombinant FKBP52 (Homo sapiens)
- Sequence (Q02790 whole entry): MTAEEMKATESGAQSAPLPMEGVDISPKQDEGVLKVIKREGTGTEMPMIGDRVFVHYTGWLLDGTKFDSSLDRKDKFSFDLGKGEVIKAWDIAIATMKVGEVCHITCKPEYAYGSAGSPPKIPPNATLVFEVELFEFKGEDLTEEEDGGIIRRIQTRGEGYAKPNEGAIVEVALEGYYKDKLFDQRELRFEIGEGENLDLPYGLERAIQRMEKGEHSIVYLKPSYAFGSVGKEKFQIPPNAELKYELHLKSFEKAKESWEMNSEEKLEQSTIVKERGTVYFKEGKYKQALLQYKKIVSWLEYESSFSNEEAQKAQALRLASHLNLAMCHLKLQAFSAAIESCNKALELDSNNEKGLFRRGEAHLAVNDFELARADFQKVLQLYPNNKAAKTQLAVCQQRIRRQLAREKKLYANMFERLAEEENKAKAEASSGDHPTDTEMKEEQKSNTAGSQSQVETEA
- procedure_summary: PPIase (rotamase) assay, FKBP-52
- assay_conditions: read-out: IC50 for inhibition of the FKBP-52 enzyme
pIC50: −log10 of the molar value.
endpoint_label: pIC50

# smiles_text, value
records = [
    ("O=C(N[C@H]1CCN(Cc2ccccc2)C1)[C@@H]1CCCCN1c1nc2ccccc2o1", 5.55),
]
